Data origin: patent US20150344426A1

Method Notes: Experiment 2: femoral vein samples of rats after IV Parent Compound A
Type: in vivo, female Sprague Dawley rats
Reported Conditions: female, Sprague-Dawley, rat, plasma (femoral vein); Parent Cmpd. A 2.5 mg/kg IV, Femoral Vein; median

>  <Smiles Structure>
O=C(NCc1cccnc1)Nc1ccc(OCCc2ccccc2-c2ccccc2)cc1

>  <Cmax>
1920 ng/mL

$$$$

* * *

Catalogue of compounds with associated solubility at 15 min
Method Notes: Kinetic solubility (iSol Explorer method)
Assay type: physicochemical
Reported Conditions: system solution buffer (pION), aqueous buffer, kinetic from dmso stock, pH 7.4, 15 minutes at room temperature
Method: Kinetic solubility was determined using the iSol Explorer method (pION Inc.; Woburn, Mass.). […] The filtrate is transferred to a second 96-well plate and read on a SpectraMAX 190 (Molecular Devices; Sunnyvale, Calif.) scanning from 190 to 498 nm. The data are analyzed with Sol Explorer Command version 2.2, (pION Inc. Woburn, Mass.) and the concentration reported in molarity and/or mass per volume.

>  <Smiles Structure>
CC(C)(C)C(=O)OC[n+]1cccc(CNC(=O)Nc2ccc(OCCc3ccccc3-c3ccccc3)cc2)c1

>  <Units Of Measure>
µM

>  <solubility at 15 min>
524

$$$$
>  <Smiles Structure>
O=C(NCc1ccc[n+](COC(=O)c2ccccc2)c1)Nc1ccc(OCCc2ccccc2-c2ccccc2)cc1

>  <Units Of Measure>
µM

>  <solubility at 15 min>
433

$$$$
>  <Smiles Structure>
CC(=O)OC[n+]1cccc(CNC(=O)Nc2ccc(OCCc3ccccc3-c3ccccc3)cc2)c1

>  <Units Of Measure>
µM

>  <solubility at 15 min>
399

$$$$

* * *

Method Notes: Stability in mouse plasma
Assay type: in vitro ADME
Reported Conditions: read-out: Mouse Plasma t1/2
Property Measured: half-life at 1 µM

>  <Molecule>
CC(C)C(=O)OC[n+]1cccc(CNC(=O)Nc2ccc(OCCc3ccccc3-c3ccccc3)cc2)c1 [Example 44]

>  <Property Measured>
half-life at 1 µM

>  <Measured Result>
< 0.0833 h

$$$$
>  <Molecule>
CC(=O)OC(C)[n+]1cccc(CNC(=O)Nc2ccc(OCCc3ccccc3-c3ccccc3)cc2)c1 (stereo not shown) [Example 37]

>  <Property Measured>
half-life at 1 µM

>  <Measured Result>
> 0.0833 h

$$$$
>  <Molecule>
O=C(NCc1ccc[n+](COC(=O)c2ccccc2)c1)Nc1ccc(OCCc2ccccc2-c2ccccc2)cc1 [Example 35]

>  <Property Measured>
half-life at 1 µM

>  <Measured Result>
1.29 h

$$$$
>  <Molecule>
O=C(NCc1ccc[n+](COC(=O)N2CCC[C@H]2CO)c1)Nc1ccc(OCCc2ccccc2-c2ccccc2)cc1 [Example 46]

>  <Property Measured>
half-life at 1 µM

>  <Measured Result>
1.45 h

$$$$

* * *

Method Notes: Experiment 1: hepatic portal vein samples of rats after oral Example Compound 35
Format: in vivo, female Sprague-Dawley rats
Reported Conditions: female, Sprague-Dawley, rat, plasma (hepatic portal vein), po, 20 mg/kg, portal vein, 2 hr after oral Example Compound 35 20 mg/kg; individual rats; read-out: [Par. Cmp. A]
Property Measured: concentration at 2 h (ng/mL)

>  <Molecule>
O=C(NCc1cccnc1)Nc1ccc(OCCc2ccccc2-c2ccccc2)cc1 [Parent Compound A]

>  <Measured Result>
1800

$$$$
